Test Details: Plasma protein binding by equilibrium dialysis, monkey plasma
Assay type: in vitro ADME
Study Conditions: plasma (10% in buffer), Cynomolgus, 0.3 μM, read-out: Fu (Mari)
Method: The determination of the plasma protein binding of compounds was performed by means of an equilibrium dialysis in a 96-well HT plate. Solutions of test compound (0.3 μM and 3 μM) were prepared in buffer (50 mM phosphate buffer) and 10% plasma. […] Both solutions were analyzed for each compound (plasma-free and plasma-containing) by LC-MS. […] The fraction unbound (Fu) was calculated as the quotient of the equilibrium concentrations of the compound in plasma-free and plasma-containing solution.
Assay Readout: fraction unbound at 0.3 μM

O=C(O)C[C@H](NC(=O)[C@@H]1CCCN(C(=O)CCC2CCNCC2)C1)c1cncc(OCCF)c1 [Example 3] ... 1

[a] O=C(O)C[C@H](NC(=O)[C@@H]1CCCN(C(=O)CCC2CCNCC2)C1)c1cncc(-c2ccc(OCCF)cc2)c1 [Example 7]
[b] O=C(O)C[C@H](NC(=O)[C@@H]1CCCN(C(=O)CCC2CCNCC2)C1)c1cccc(OCCF)c1 [Example 1]
*Q* Pick one: a or b . Which has the bigger fraction unbound at 0.3 μM number? Please reply using the label of the selected record.
*A* b
(b: 0.99, a: 0.54)

###

Test Details: Plasma protein binding by equilibrium dialysis, human plasma
Assay type: in vitro ADME
Study Conditions: plasma (10% in buffer), Caucasian, 0.3 μM, read-out: Fu (Mari)
Assay Readout: fraction unbound at 0.3 μM

O=C(O)C[C@H](NC(=O)[C@@H]1CCCN(C(=O)CCC2CCNCC2)C1)c1cncc(OCCF)c1 ... 0.96

[a] O=C(O)C[C@H](NC(=O)[C@@H]1CCCN(C(=O)CCC2CCNCC2)C1)c1cncc(-c2ccc(OCCF)cc2)c1
[b] O=C(O)C[C@H](NC(=O)[C@@H]1CCCN(C(=O)CCC2CCNCC2)C1)c1cccc(OCCF)c1
*Q* Pick one: a or b . Which has the bigger fraction unbound at 0.3 μM number? Please reply using the label of the selected record.
*A* b
(b: 0.91, a: 0.5)

###

Test Details: Plasma protein binding by equilibrium dialysis, monkey plasma
Assay type: in vitro ADME
Study Conditions: plasma (10% in buffer), Cynomolgus, 3 μM, read-out: Fu (Mari)
Assay Readout: fraction unbound at 3 μM

O=C(O)C[C@H](NC(=O)[C@@H]1CCCN(C(=O)CCC2CCNCC2)C1)c1cncc(OCCF)c1 ... 1

[A] O=C(O)C[C@H](NC(=O)[C@@H]1CCCN(C(=O)CCC2CCNCC2)C1)c1cccc(OCCF)c1
[B] O=C(O)C[C@H](NC(=O)[C@@H]1CCCN(C(=O)CCC2CCNCC2)C1)c1cncc(-c2ccc(OCCF)cc2)c1
*Q* Which gives the smaller fraction unbound at 3 μM number: A or B ? Please reply using the label of the selected record.
*A* B
(B: 0.58, A: 0.93)

###

Test system: human thrombi
Test Details: Ex vivo blood flow model: binding to human thrombi, incl. competition with cold compound
Study Conditions: 3 minutes post-injection of 18F-labeled compound; ± SEM; without cold compound
Text: The binding of compounds to thrombi was further investigated in an ex vivo blood flow model similar to that described in “Wakhloo, A. K. et al. Thrombus and stroke 2008, in vitro models 57-66” but modified with regard to thrombus development. […]
Assay Readout: Accumulation Thrombus

Answered cases to consult:
O=C(O)C[C@H](NC(=O)[C@@H]1CCCN(C(=O)CCC2CCNCC2)C1)c1cncc(-c2ccc(OCC[18F])cc2)c1 ... 44 ± 7 (n = 6) 10^3 cpm/mg
N#Cc1cc(-c2cncc([C@H](CC(=O)O)NC(=O)[C@@H]3CCCN(C(=O)CCC4CCNCC4)C3)c2)ccc1[18F] ... 39 ± 5 (n = 6) 10^3 cpm/mg
O=C(O)C[C@H](NC(=O)[C@@H]1CCCN(C(=O)CCC2CCNCC2)C1)c1cncc(CCc2ccc(OCC[18F])cc2)c1 ... 285 ± 76 (n = 4) 10^3 cpm/mg

`O=C(O)C[C@H](NC(=O)[C@@H]1CCCN(C(=O)CCC2CCNCC2)C1)c1cncc(OCC[18F])c1` on human thrombi gives Accumulation Thrombus = 202 ± 11 (n = 3) 10^3 cpm/mg
